# Target: UniProt P35228
# Sequence (P35228 whole entry, species assumed): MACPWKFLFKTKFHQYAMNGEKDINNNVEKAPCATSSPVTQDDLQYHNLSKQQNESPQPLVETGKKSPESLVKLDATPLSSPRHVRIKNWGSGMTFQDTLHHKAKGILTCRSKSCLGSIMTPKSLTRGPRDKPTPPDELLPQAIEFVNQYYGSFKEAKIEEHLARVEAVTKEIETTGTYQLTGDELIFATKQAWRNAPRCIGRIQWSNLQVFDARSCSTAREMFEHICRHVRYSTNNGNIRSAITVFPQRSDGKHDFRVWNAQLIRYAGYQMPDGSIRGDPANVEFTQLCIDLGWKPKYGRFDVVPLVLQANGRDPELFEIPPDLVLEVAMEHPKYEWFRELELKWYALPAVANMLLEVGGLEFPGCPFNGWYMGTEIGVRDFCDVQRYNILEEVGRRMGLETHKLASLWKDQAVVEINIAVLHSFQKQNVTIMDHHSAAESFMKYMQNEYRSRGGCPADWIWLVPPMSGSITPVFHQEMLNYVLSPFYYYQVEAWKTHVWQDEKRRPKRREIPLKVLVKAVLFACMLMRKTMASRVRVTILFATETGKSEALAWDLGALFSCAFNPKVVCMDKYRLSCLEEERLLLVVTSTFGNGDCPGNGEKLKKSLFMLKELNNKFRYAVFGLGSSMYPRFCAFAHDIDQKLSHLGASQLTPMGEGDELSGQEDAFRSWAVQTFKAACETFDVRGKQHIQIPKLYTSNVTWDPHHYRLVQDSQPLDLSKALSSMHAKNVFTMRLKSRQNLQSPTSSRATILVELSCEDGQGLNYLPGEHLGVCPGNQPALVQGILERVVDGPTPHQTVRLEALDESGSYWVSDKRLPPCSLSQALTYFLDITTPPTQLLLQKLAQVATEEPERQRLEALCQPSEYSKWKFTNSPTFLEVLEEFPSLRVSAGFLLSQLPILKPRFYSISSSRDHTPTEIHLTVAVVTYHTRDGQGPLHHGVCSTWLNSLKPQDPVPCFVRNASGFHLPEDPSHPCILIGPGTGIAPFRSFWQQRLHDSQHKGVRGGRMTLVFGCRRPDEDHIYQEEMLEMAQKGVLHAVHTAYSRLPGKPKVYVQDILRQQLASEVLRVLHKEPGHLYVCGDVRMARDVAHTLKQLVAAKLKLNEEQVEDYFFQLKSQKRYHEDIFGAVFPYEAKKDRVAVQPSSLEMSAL
# Test protocol: Reduction of iNOS activity
# Type: biochemical
# Test parameters: read-out: Reduction of iNOS activity, Amount used in μM (IC50) values)
Quantity: IC50 (µM)

| Molecule | Target | Numeric result |
| --- | --- | --- |
| COc1cc(CCC(C)=O)ccc1O [Zingerone, reference compound] | UniProt P35228 | 364 |

---

# Target: MMP-3 enzyme (Homo sapiens, UniProt P08254)
# Sequence (P08254 100-477, species assumed): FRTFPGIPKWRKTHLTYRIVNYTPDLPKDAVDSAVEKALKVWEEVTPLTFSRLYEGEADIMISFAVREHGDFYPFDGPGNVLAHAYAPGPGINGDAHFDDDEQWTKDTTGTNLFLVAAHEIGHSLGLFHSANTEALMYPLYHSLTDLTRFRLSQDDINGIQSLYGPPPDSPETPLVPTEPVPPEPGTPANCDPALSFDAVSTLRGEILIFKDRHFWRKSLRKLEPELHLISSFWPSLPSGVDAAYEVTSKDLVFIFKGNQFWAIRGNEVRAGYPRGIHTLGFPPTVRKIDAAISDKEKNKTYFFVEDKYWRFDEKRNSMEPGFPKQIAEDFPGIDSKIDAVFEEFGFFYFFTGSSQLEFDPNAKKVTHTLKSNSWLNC

| Compound structure | Target | IC50 (mM) |
| --- | --- | --- |
| COc1cc(CC(C(C)=O)C(C)=O)ccc1O | MMP-3 enzyme (Homo sapiens, UniProt P08254) | 2.14 |

Each recorded value in this set is attributed to patent US10568819B2.
